B1: RSAD1 (parent)
chain: YCNFNKYIPRRLEEAAMQKCLVTE

Variants of: B1
Method: protein stability index of a GFP-peptide fusion (GPS, HEK-293T) (PSI 1-6); higher = more stable;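 note: lentivirally expressed fusions sorted by FACS into six bins by GFP to DsRed ratio, PSI derived from sequencing read proportions per bin multiplied by bin number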
Test Settings: c terminus: a fixed tail appended
Could you label it criterion met if measured protein stability index is 2 or higher, and criterion not met otherwise?

Record Sequence: YCNFNKYIPRRLEEAAFQKCLVTE
Cat: criterion not met
//
Record Sequence: YCNFNKYIPRRLEEAAMQKCLVTN
Cat: criterion met
//
Record Sequence: YCNFNKYIPRRLEEAAMQWCLVTE
Cat: criterion met
//
Record Sequence: YCNFNKSIPRRLEEAAMQKCLVTE
Cat: criterion met
//
Record Sequence: YCNDNKYIPRRLEEAAMQKCLVTE
Cat: criterion met
//
Record Sequence: YCNFNKYIPRRLEEAAMQKSLVTE
Cat: criterion met
//
Record Sequence: YCNFNKYIPRRLEELAMQKCLVTE
Cat: criterion met
//
Record Sequence: YCNFNKYPPRRLEEAAMQKCLVTE
Cat: criterion not met
//
Record Sequence: YCNFNKYIPRRLEEAAMTKCLVTE
Cat: criterion not met
//
Record Sequence: YCNFWKYIPRRLEEAAMQKCLVTE
Cat: criterion met
